Below, each entry is listed alongside its reported Inh (PKA).
- System: PRKACA-PRKAR2A interaction (SmBiT-PRKACA / LgBiT-PRKAR2A), protein kinase A
- Design: NanoLuc complementation counter-screen in cell extract, PRKACA with PRKAR2A, loss of luminescence, detects NanoLuc interference
- condition-summary: counter-screen for NanoLuc interference; 0.5 h, 20 µM; inhibitor
The reply should contain only the number, in %.

Exercise: Would you kindly share the measured Inh (PKA) for O=C(c1ccc(Nc2nccc(-c3cc4ccccc4s3)n2)cc1)N1CCC(N2CCCC2)CC1 ?
Solution: 16.61

New cases:
Exercise: Which measured Inh (PKA) value corresponds to Cc1nn(C)c2c1C(c1ccc(C(F)(F)F)cc1)C(C#N)=C(N)O2 (centres unmarked) ?
Solution: 14.94

Exercise: For the compound shown here, Nc1cc(F)ccc1NC(=O)/C=C/c1cnn(C/C=C/c2ccccc2)c1 , give the reported Inh (PKA).
Solution: 7.983

Exercise: Reported Inh (PKA), compound C#C[C@]1(O)CC[C@H]2[C@@H]3CCC4=CC(=O)CC[C@@H]4[C@H]3C(=C)C[C@@]21CC : ____
Solution: 8.15

Exercise: So what does the record say about Inh (PKA) for CS(=O)(=O)c1ccc(-c2nnc(/C=C/c3nnc(-c4ccc(C#N)cc4)o3)n2-c2ccccc2Cl)nc1 ?
Solution: 3.502

Exercise: Recorded Inh (PKA) for O=C(CCN1CCN(C(=O)OCc2cc(Cl)cc(Cl)c2)CC1)c1ccc2[nH]c(=O)oc2c1 , please?
Solution: 13.11

Exercise: Fill in: Inh (PKA) of CN(Cc1cnc2nc(N)nc(N)c2n1)c1ccc(C(=O)N[C@@H](CCC(=O)O)C(=O)O)cc1 [UM0133539:02, Methotrexate] is ___
Solution: 2.622

Exercise: Sample CN1CCN(CCOc2cc(OC3CCOCC3)c3c(Nc4c(Cl)ccc5c4OCO5)ncnc3c2)CC1 — what was its Inh (PKA)?
Solution: 2.374

Exercise: Look up Inh (PKA) for this compound: CC(=O)Nc1ccc(O)cc1
Solution: -0.5181

Exercise: Please report the recorded Inh (PKA) for NC(=O)c1ccc(I)c([N+](=O)[O-])c1 .
Solution: 1.39

Exercise: Item COc1cc2c(cc1OC)CN(CCc1ccc(NC(=O)c3cc(OC)c(OC)cc3NC(=O)c3cnc4ccccc4c3)cc1)CC2 has what recorded Inh (PKA)?
Solution: 12.46

----------
- target-or-system: MeCP2-TBL1 interaction (MeCP2-SmBiT / TBL1-LgBiT) (Mus musculus, UniProt Q9QXE7)
- Construct: expressed in transfected cells; crude lysate used as a cell-free assay
- Sequence (Q9QXE7 166-527): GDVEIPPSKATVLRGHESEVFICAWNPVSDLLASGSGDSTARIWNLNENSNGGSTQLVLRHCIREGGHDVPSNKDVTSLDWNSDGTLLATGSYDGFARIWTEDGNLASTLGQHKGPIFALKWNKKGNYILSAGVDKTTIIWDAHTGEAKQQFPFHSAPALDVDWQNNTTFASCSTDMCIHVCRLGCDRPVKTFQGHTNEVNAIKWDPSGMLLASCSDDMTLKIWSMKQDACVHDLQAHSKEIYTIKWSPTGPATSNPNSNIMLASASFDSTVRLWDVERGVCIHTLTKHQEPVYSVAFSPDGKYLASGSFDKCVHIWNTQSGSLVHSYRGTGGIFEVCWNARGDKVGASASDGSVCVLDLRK
- run-description: MeCP2-TBL1 NanoLuc luciferase complementation assay (cell-free, extracts of transfected HEK293 cells);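 also: each compound tested at 20 µM final concentration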
- Format: binding, human
- condition-summary: primary screen of the Asinex library, sheet "Sargen output Asinex library", one well per compound, Batch Ref. 1
measurement-type: Inhibition percent (%)
Give the quantity in %, number only.

Please review the following examples before continuing.
Exercise: Test system MeCP2-TBL1 interaction (MeCP2-SmBiT / TBL1-LgBiT) (Mus musculus, UniProt Q9QXE7); read-out Inhibition percent; what value for Cc1cccc(CC(=O)N2CCC(Cc3cccc(-c4cccnc4)c3)(C(N)=O)CC2)c1 ?
Solution: -2.13

Exercise: What value of Inhibition percent on MeCP2-TBL1 interaction (MeCP2-SmBiT / TBL1-LgBiT) (Mus musculus, UniProt Q9QXE7) does COCC(=O)N1CC2(CO[C@@H]3c4cccc(OC)c4OC(C)(C)[C@H]3C2)C1 have?
Solution: -2.32

Exercise: Find Inhibition percent (MeCP2-TBL1 interaction (MeCP2-SmBiT / TBL1-LgBiT) (Mus musculus, UniProt Q9QXE7)) for the entry Cc1cc(CCCC(=O)N2CCC(c3nc(N(C)C)ncc3-c3cncnc3)C2)ccc1F (stereo not shown)
Solution: 0.11

Could you now consider this next compound?
Exercise: Give the reported Inhibition percent for FC(F)(F)c1ccccc1Cc1cccc(C2CN(Cc3cccnc3)CCO2)n1 (stereo not shown) (system: MeCP2-TBL1 interaction (MeCP2-SmBiT / TBL1-LgBiT) (Mus musculus, UniProt Q9QXE7)).
Solution: 32.27
